Provide the reported IC50 of each item.
Target: human EHMT2 913-1193 (Homo sapiens, UniProt Q96KQ7)
Construct: recombinant purified human EHMT2 913-1193, Viva; purchased Viva
Sequence (Q96KQ7 913-1193): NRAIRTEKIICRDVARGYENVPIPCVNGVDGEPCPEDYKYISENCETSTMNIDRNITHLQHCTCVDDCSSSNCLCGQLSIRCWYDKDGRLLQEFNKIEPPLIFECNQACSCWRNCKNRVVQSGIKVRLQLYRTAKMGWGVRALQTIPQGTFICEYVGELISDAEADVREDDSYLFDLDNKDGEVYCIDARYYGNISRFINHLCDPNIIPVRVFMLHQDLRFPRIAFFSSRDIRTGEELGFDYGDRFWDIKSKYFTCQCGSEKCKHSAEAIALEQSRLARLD
Assay Overview: EHMT2 enzyme assay on histone peptide substrate (EHMT2 PEP)
Type: biochemical
Measurement Setup: Table II; read-out: EHMT2 PEP (IC50 μM)

Known results for molecules:
- Molecule: "COc1ccc(Nc2nccc(N3CCC(C(N)=O)CC3)n2)cc1OCCCN1CCCC1 [Compound 153]"
  Target: "human EHMT2 913-1193 (Homo sapiens, UniProt Q96KQ7)"
  IC50: "1 to 10 µM"
- Molecule: "COCCCNc1ccnc(Nc2ccc(OC)c(OCCCN3CCCC3)c2)n1 [Compound 22]"
  Target: "human EHMT2 913-1193 (Homo sapiens, UniProt Q96KQ7)"
  IC50: "< 0.1 µM"
- Molecule: "COc1ccc(Nc2nccc(NCC3CCN(C(C)=O)CC3)n2)cc1COCCN1CCCC1 [Compound 48]"
  Target: "human EHMT2 913-1193 (Homo sapiens, UniProt Q96KQ7)"
  IC50: "0.1 to 1 µM"
- Molecule: "COc1ccc(Nc2nccc(NCc3ccccn3)n2)cc1OCCCN1CCCC1 [Compound 23]"
  Target: "human EHMT2 913-1193 (Homo sapiens, UniProt Q96KQ7)"
  IC50: "0.1 to 1 µM"
- Molecule: "CCCCNc1nccc(NC2CCOCC2)n1 [Compound 63]"
  Target: "human EHMT2 913-1193 (Homo sapiens, UniProt Q96KQ7)"
  IC50: "> 10 µM"

List the reported IC50 of each molecule below.
1. CCc1cc(NC)nc(Nc2ccc(OC)c(OCCCN3CCCC3)c2)n1 [Compound 240]
2. COc1ccc(Nc2nccc(CNC3CCN(C)CC3)n2)cc1OCCCN1CCCC1 [Compound 111]
3. COc1ccc(Nc2nccc(CNC3CCOCC3)n2)cc1OCCCN1CCCC1 [Compound 107]
4. COc1ccc(Nc2nccc(NCC3CCN(CC(F)F)CC3)n2)cc1OCCCN1CCCC1 [Compound 2]
5. CCCCNc1ccnc(NCC2CCN(C)CC2)n1 [Compound 87]

Output:
1. < 0.1 µM
2. > 10 µM
3. > 10 µM
4. < 0.1 µM
5. 1 to 10 µM
